# Test system: HTT mRNA
# Assay notes: Gene panel canonical junction qPCR assay, decrease in CJ mRNA, Table 3
# Assay type: cell-based
# Experimental conditions: decrease in CJ mRNA levels, canonical junction qPCR, gene panel
// reported IC50 per item

C[C@H]1CN(c2ccc(C(=O)Nc3cc(F)c4nn(C)cc4c3)c3nc(CN)sc23)C[C@H](C)N1 [Compound 707] :: 1 to 10 µM
COc1nc2c(C(=O)Nc3cc4cn(C)nc4c(F)c3OC)ccc(N3C[C@H](C)N[C@@H](C)C3)c2s1 [Compound 786] :: 1 to 10 µM
Cc1cn2cc(NC(=O)c3ccc(N4CCNCC4)c4c3OCO4)cc(F)c2n1 [Compound 642] :: 1 to 10 µM

Okay, now this compound:
# lookup: IC50 of Cn1cc2cc(NC(=O)c3ccc(N4CCC(NC5CC5)CC4)c4cn(C)nc34)cc(CNS(C)(=O)=O)c2n1 [Compound 735, 2,2,2-trifluoroacetate]
> 10 µM

* * *

// reported pIC50 per item
# Test system: HTT mRNA
# Assay notes: Splicing RT-qPCR assay (THP), Table 2A
# Assay type: cell-based
# Experimental conditions: Table 2A (THP), CJ mRNA decrease, read-out: HTT CJ (decrease in canonical junction mRNA, IC50)
pIC50: −log10 of the molar value. Where a name gives a salt, the structure may show the parent alone.

Observe how each entry below is paired with its result.
CCNC1CCN(c2ccc(C(=O)Nc3cn4cc(C)nc(C)c4c3OC)c3nn(C)cc23)CC1 [Compound 452, trifluoroacetate] :: < 5.00
COCCN[C@@H]1CCN(c2ccc(C(=O)Nc3cc(F)c4nc(C)cn4c3)c3nn(C)cc23)C1 [Compound 113] :: < 5.00
CCNC1CCN(c2cc(Cl)c(C(=O)Nc3cn4cc(C)nc4c(F)c3OC)c3nn(C)cc23)CC1 [Compound 335] :: > 7.00
Cc1cn2cc(NC(=O)c3ccc(N4CCC(NC5CC5)CC4)c4cn(C)nc34)nc2c(-c2cnsc2)n1 [Compound 492] :: < 5.00
COc1nc2c(C(=O)Nc3cc(F)c4nc(C)cn4c3)ccc(N3CCC(N)CC3)c2s1 [Compound 208] :: > 7.00
C[C@H]1CN(c2ccc(C(=O)Nc3cc(F)c4nn(C)cc4c3)c3nn(C)cc23)C[C@H](C)N1 [Compound 584] :: 5.00 to 6.00

# lookup: pIC50 of CCNC1CCN(c2ccc(C(=O)Nc3cc(Oc4cccc(C#N)c4)c4nc(C)cn4c3)c3nn(C)cc23)CC1 [Compound 326]
5.00 to 6.00

* * *

# Test system: HTT mRNA
# Assay notes: Splicing RT-qPCR assay (THP), Table 2A
# Format: cell-based
# Experimental conditions: Table 2A (THP), CJ mRNA decrease, read-out: HTT CJ (decrease in canonical junction mRNA, IC50)
pIC50: −log10 of the molar value.
Recorded metric: pIC50

COc1cc2nn(C)cc2cc1NC(=O)c1c(C2CC2)cc(N2CCC(NC3CC3)CC2)c2cn(C)nc12 :: < 5.00
COc1cc2nn(C)cc2cc1NC(=O)c1ccc(N2CCC3(CCCN3)C2)c2cn(C)nc12 (stereo not shown) :: < 5.00

# lookup: pIC50 of `Cc1cn2cc(NC(=O)c3ccc(N(C)C4CCNCC4)c4cn(C)nc34)nc2c(C)n1`
6.00 to 7.00

# lookup: pIC50 of `Cc1cn2cc(NC(=O)c3ccc(N4CC(CNC5CC5)C4)c4cn(C)nc34)cc(F)c2n1`
5.00 to 6.00
